assay_comment: SRD component: plasma and urine pharmacokinetics
Type: in vivo, human
measurement_conditions: male, human, plasma, oral
measurement_label: Tmax

// C[C@@H](Oc1ccc(S(C)(=O)=O)cc1C(=O)N1C[C@@H]2C[C@]2(c2cc(C(F)(F)F)on2)C1)C(F)(F)F [BI 425809] : Tmax value = ~45 min

----------
assay_comment: Bioavailability/food effect
Type: in vivo
measurement_conditions: male, human, plasma, oral, 25 mg, Median t max, 25-mg tablet, fasted
measurement_label: Tmax (h)
Answers are plain numbers, in h.

Quick note, Tmax for C[C@@H](Oc1ccc(S(C)(=O)=O)cc1C(=O)N1C[C@@H]2C[C@]2(c2cc(C(F)(F)F)on2)C1)C(F)(F)F [BI 425809] landed at 4
